Tested on: SH-SY5Y cells
Assay: AK (adenylate kinase) release ToxiLight cytotoxicity assay; further: reference of the scale not given here
Conditions: PKIS2 primary screening
Give measured AK for each item. Keep answers brief.

Fill in the blank: the reported AK of COc1ccc(NC(=O)c2ccoc2)cc1-c1ccc(C(=O)NCC2CC2)cc1 [UNC10225046A] is ____. 86.14

Also, COc1cc(Nc2nccc(N3CCC(NS(=O)(=O)c4ccc(NC(C)=O)cc4)CC3)n2)cc(OC)c1OC [GSK1379825] please. 75.82

And what about the compound Nc1nccc(-c2c(-c3ccc(F)cc3)ncn2C2CCN(Cc3ccccc3)CC2)n1 [UNC10225058A] ? 75.20

Can you handle Cl.c1ccc(Cn2ncc3cc(Nc4ncnc5ccccc45)ccc32)cc1 [UNC10225085A] next? 124.83

Another compound to look at: CNc1nccc(-c2ccc3c(N)n[nH]c3c2)n1 [GSK2206003] 89.67

Item: Nc1nc(-c2ccccn2)c(-c2ccnc3ccccc23)s1 [UNC10225201A] 81.66

Further, for CS(=O)(=O)Nc1ccc(-c2ccnc3[nH]ccc23)cc1 [UNC10225427A] ? 106.42

Check CSc1ccc(-c2nc3n(c2-c2ccncc2)CCC3)cc1 [UNC10225486A] too. 80.57

And COc1ccc(Nc2nccc(N3CCC(NS(=O)(=O)c4ccc(NC(C)=O)cc4)C3)n2)cc1 (stereo not drawn) [GSK1379729] ? 69.35

Also check COc1cc2nccc(Nc3ccc(OCc4ccc(NC(C)=O)cc4)cc3)c2cc1OC.Cl [UNC10225233A] 100.23

What do you get for Cc1ccc2c(-c3ccnc(Nc4ccc(C(F)(F)F)cc4)n3)cnn2n1 [UNC10225224A] ? 79.85

What do you get for Cl.Cl.Cl.Fc1ccc(-c2ncn(C3CCNCC3)c2-c2ccnc(Nc3ccccc3)n2)cc1 [UNC10225420B] ? 83.09
